Values compiled from PubChem BioAssay (NCI).

System: HCT-15 colon
Assay: NCI-60 one-dose screen, 48 h (100 = growth as untreated, 0 = no growth, -100 = all killed)
Details: 10 µM unless noted
Compounds without any hit were thinned out: in the full panel of roughly 83,000, 20% have a hit.
endpoint-name: growth (%)

compound=O=C(Nc1ccc(F)c(Cl)c1)c1n[nH]c(=O)c2ccccc12 recorded_measurement=89.6
compound=CC(C)(C)c1ccc(S(=O)(=O)Oc2ccc3c4c(c(=O)oc3c2)CCCCC4)cc1 recorded_measurement=30.5
compound="CCCC1OC(c2ccc(C(C)C)cc2)OCC1CC (stereo not given)" recorded_measurement=103
compound=CCCCCCCC/C=C\CCCCCCCCOc1ccccc1CCOP(=O)(O)OCC[N+](C)(C)C recorded_measurement=46.7
compound=COc1ccc(-c2nc3sccn3c2-c2ccnc(NCCNS(=O)(=O)c3ccc(C(F)(F)F)cc3)n2)cc1 recorded_measurement=9.19
compound="Cc1cc(Cl)ccc1OC(C)C(=O)Nc1nnc(C2CC2)s1 (stereo not given)" recorded_measurement=119
compound="NC(C(=O)O)C(O)c1ccc(OCc2ccccc2)c(OCc2ccccc2)c1 (stereo not given)" recorded_measurement=97.6
compound=COc1ccc(/C=C2\Oc3cc(OCCN4CCCC4)ccc3C2=O)c(OC)c1 recorded_measurement=80.2
compound="CCC(c1cccc(Br)c1)C(C(=O)O)c1ccc(OC)cc1 (stereo not given)" recorded_measurement=83.5
compound="COc1cc2c(cc1OC)C1(C)N(CC2)C(=O)OC1(C)C (stereo not given)" recorded_measurement=101
